# EXPERIMENT NOTES: In vitro enzymatic digestion model of the digestive tract (pepsin, pancreatin, bile), HPLC
# Format: in vitro ADME
# MEASUREMENT PARAMETERS: Gastric phase 30 min.; read-out: Degradation (%)
Where no end group is shown, it is not given here.
REPORTED PROPERTY: metabolised at 0.5 h (%)
Lab book: enter the figure in %, no units written.

Some substances with recorded metabolised at 0.5 h:
>  <SUBSTANCE>
QGENEEEDSGAIVTVK [Peptide P16f, QGENEEEDSGAIVTVK]

>  <REPORTED PROPERTY>
metabolised at 0.5 h

>  <UNIT TAG>
%

>  <REPORTED RESULT>
65.8

$$$$
>  <SUBSTANCE>
SDNFEY [Peptide P6a, SDNFEY]

>  <REPORTED PROPERTY>
metabolised at 0.5 h

>  <UNIT TAG>
%

>  <REPORTED RESULT>
31

$$$$
>  <SUBSTANCE>
QGENEGEDKGAIVT [Peptide P14b, QGENEGEDKGAIVT]

>  <REPORTED PROPERTY>
metabolised at 0.5 h

>  <UNIT TAG>
%

>  <REPORTED RESULT>
6.7

$$$$

Please examine the following record next.
Tell me metabolised at 0.5 h reported for EEDQPRPDHPPQRP [Peptide P14c, EEDQPRPDHPPQRP]
4.2

----------
# EXPERIMENT NOTES: In vitro enzymatic digestion model of the digestive tract (pepsin, pancreatin, bile), HPLC
# Assay type: in vitro ADME
# MEASUREMENT PARAMETERS: HPLC; completely degraded = at the beginning of the intestinal phase; resistant ones finally degraded at the end
Where no end group is shown, it is not given here.
REPORTED PROPERTY: degradation in the in vitro digestion model (in words)

>  <RESIDUE STRING>
QGENEEEDSGAIVTVK [Peptide P16f, QGENEEEDSGAIVTVK]

>  <REPORTED RESULT>
completely degraded

$$$$
>  <RESIDUE STRING>
EEDQPRPDHPPQRP [Peptide P14c, EEDQPRPDHPPQRP]

>  <REPORTED RESULT>
completely degraded

$$$$

----------
# EXPERIMENTAL TARGET: PLA2 (pancreatic phospholipase A2) (Homo sapiens, UniProt P04054)
# Sequence (P04054 23-148, species assumed): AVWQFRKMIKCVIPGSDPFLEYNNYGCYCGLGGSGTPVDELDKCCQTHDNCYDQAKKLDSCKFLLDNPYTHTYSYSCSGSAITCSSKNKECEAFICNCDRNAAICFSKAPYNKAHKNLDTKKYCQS
# EXPERIMENT NOTES: PLA2 inhibition assay by HPLC with DOPC as substrate
# Type: biochemical
# MEASUREMENT PARAMETERS: peptide 2 mg/ml
Where no end group is shown, it is not given here.
REPORTED PROPERTY: Percentage of PLA2 inhibition (%)
Lab book: enter the figure in %, no units written.

>  <SUBSTANCE>
EEDQPRPDHPPQRP [Peptide P14c, EEDQPRPDHPPQRP]

>  <Percentage of PLA2 inhibition, %>
25.2

$$$$
>  <SUBSTANCE>
SVIKPPTD [Peptide P8a, SVIKPPTD]

>  <Percentage of PLA2 inhibition, %>
26.0

$$$$
>  <SUBSTANCE>
SDNFEY [Peptide P6a, SDNFEY]

>  <Percentage of PLA2 inhibition, %>
24.5

$$$$
>  <SUBSTANCE>
QGENEGEDKGAIVT [Peptide P14b, QGENEGEDKGAIVT]

>  <Percentage of PLA2 inhibition, %>
23.8

$$$$
>  <SUBSTANCE>
QGENEEEDSGAIVTVK [Peptide P16f, QGENEEEDSGAIVTVK]

>  <Percentage of PLA2 inhibition, %>
15.9

$$$$

Tell me Percentage of PLA2 inhibition reported for EEEGGSVLSG [Peptide P10b, EEEGGSVLSG]
26.1
